Biological target: Leucine-rich repeat serine/threonine-protein kinase 2 (Homo sapiens)
Sequence (Q5S007 whole entry): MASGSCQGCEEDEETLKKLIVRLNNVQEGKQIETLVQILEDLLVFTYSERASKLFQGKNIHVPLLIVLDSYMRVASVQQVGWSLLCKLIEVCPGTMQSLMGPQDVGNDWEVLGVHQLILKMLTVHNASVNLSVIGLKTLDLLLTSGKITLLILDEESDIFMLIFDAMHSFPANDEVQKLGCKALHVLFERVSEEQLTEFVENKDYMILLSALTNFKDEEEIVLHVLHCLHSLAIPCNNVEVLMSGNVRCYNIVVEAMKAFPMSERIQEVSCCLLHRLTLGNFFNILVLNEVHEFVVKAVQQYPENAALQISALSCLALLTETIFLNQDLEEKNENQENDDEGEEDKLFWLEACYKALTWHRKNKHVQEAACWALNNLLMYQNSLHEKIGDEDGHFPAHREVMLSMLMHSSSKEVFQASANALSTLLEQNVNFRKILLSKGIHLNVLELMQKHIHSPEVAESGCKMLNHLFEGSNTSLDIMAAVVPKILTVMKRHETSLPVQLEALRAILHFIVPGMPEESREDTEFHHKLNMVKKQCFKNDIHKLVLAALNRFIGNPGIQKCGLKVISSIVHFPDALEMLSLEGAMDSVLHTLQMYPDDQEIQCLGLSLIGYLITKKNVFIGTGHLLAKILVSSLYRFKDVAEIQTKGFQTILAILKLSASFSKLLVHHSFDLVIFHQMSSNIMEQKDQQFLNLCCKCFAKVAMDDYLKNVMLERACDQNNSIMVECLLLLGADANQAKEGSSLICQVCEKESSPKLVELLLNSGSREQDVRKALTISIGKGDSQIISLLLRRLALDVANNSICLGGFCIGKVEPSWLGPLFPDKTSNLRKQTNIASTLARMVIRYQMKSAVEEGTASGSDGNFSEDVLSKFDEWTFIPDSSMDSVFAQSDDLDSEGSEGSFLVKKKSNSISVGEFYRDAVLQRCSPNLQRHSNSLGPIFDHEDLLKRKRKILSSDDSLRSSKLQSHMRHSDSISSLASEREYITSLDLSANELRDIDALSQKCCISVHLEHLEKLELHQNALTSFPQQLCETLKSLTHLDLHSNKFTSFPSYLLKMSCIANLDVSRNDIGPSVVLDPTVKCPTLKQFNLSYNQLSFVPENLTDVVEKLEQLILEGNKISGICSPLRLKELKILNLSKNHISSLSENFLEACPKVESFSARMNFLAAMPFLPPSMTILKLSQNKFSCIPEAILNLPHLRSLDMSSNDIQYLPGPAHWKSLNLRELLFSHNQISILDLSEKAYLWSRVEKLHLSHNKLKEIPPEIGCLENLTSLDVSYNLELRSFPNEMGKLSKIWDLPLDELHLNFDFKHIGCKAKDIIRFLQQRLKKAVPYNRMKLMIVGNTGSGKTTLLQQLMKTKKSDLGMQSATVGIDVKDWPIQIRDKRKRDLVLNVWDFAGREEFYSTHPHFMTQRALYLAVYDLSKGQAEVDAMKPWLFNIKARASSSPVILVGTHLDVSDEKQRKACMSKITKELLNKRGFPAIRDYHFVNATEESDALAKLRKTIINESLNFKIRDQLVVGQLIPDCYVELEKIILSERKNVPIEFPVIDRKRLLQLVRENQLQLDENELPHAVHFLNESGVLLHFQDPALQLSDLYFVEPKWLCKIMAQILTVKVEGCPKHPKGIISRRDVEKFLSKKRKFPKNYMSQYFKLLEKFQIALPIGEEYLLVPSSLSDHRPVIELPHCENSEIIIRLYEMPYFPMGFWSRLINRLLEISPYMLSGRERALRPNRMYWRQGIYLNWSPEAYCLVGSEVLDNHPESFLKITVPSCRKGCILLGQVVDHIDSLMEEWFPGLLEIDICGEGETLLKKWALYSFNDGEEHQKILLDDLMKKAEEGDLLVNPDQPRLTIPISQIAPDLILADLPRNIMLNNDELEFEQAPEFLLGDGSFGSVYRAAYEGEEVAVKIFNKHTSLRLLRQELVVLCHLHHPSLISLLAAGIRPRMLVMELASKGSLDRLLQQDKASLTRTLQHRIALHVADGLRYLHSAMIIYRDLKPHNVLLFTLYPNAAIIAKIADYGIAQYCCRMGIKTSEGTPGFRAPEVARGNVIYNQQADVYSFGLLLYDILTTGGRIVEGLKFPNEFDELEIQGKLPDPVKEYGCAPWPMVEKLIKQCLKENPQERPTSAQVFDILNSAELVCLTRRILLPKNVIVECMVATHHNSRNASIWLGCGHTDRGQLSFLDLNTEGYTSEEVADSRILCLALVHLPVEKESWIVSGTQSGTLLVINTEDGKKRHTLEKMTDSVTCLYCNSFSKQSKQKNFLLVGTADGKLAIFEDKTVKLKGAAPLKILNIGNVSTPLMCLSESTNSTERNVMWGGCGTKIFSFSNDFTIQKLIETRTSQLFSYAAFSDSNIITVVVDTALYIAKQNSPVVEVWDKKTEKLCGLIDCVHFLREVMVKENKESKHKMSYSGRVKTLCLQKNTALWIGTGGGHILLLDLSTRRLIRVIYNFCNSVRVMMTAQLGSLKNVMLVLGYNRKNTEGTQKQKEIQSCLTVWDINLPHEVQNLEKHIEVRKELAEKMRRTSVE
Assay: Inhibition of LRRK2 in human PBMCs by ActivX KiNativ method
Quantity Name: pIC50
One number for each entry, as −log10 of the molar value.

Past entries and their recorded results:
Cn1cc(-c2c[nH]c3ncnc(N4CCOCC4)c23)cn1 ... 7.30
N#Cc1cccc(-c2c[nH]c3ncnc(N4CCOCC4)c23)c1 ... 7.82

Now consider a different compound.
Can you share its pIC50? I mean this compound: "CN(C)c1ncnc2[nH]cc(-c3cccc(C#N)c3)c12"
7.38

====

Assay: Clearance in human liver microsomes
Type: ADME
Details: read-out: CLH
Rule: measured CLint scaled below 40 mL/min/kg gets rule met; anything equal to or greater than 40 mL/min/kg gets rule not met.

N#Cc1cc(F)cc(-c2c[nH]c3ncnc(N4CCOCC4)c23)c1 ... rule met
c1cnc(-c2c[nH]c3ncnc(N4CCOCC4)c23)cn1 ... rule met
CN1CCN(c2ncnc3[nH]cc(-c4cccc(C#N)c4)c23)CC1 ... rule met
N#Cc1cccc(-c2c[nH]c3ncnc(N4CCOC(C#N)C4)c23)c1 (stereo unspecified) ... rule met
N#Cc1cccc(-c2c[nH]c3ncnc(N4CCC4)c23)c1 ... rule met
N#Cc1cccc(-c2c[nH]c3ncnc(N4CCOCC4)c23)c1 ... rule met

State whether 40 mL/min/kg exceeds CLint scaled recorded for "CN(C)c1ncnc2[nH]cc(-c3cccc(C#N)c3)c12" .
rule not met

State whether 40 mL/min/kg exceeds CLint scaled recorded for "COc1cccc(-c2c[nH]c3ncnc(N4CCOCC4)c23)c1" .
rule not met

State whether 40 mL/min/kg exceeds CLint scaled recorded for COC1CCCN(c2ncnc3[nH]cc(-c4cccc(C#N)c4)c23)C1 (stereo unspecified) .
rule not met

State whether 40 mL/min/kg exceeds CLint scaled recorded for "Cn1ccc(-c2c[nH]c3ncnc(N4CCOCC4)c23)n1" .
rule met

State whether 40 mL/min/kg exceeds CLint scaled recorded for "N#Cc1cccc(-c2c[nH]c3ncnc(N4CCOCC4)c23)c1F" .
rule met
